Outcome Measure: melting point

[Q] Give the measured melting point of `COC(=O)CC[C@@H](C)[C@H]1CC=C2C3=C(CC[C@@]21C)[C@@]1(C)CC[C@H](O)C(C)(C)[C@@H]1CC3` .
[A] 156 to 157 °C

[Q] Recorded melting point for `C[C@H](CCC(N)=O)[C@H]1CC=C2C3=C(CC[C@@]21C)[C@@]1(C)CC[C@H](O)C(C)(C)[C@@H]1CC3` , please?
[A] 233 to 235 °C

[Q] Could you tell me which melting point is on file for `CC(=O)NCCC[C@@H](C)[C@H]1CC=C2C3=C(CC[C@@]21C)[C@@]1(C)CC[C@H](O)C(C)(C)[C@@H]1CC3` ?
[A] 219 to 221 °C

[Q] Record request: melting point value, item `C[C@H](CCC(=O)OCc1ccccc1)[C@H]1CC=C2C3=C(CC[C@@]21C)[C@@]1(C)CC[C@H](O)C(C)(C)[C@@H]1CC3`
[A] 118 to 119 °C

[Q] # get_value(readout='melting point', item= `CC(=O)CC[C@@H](C)[C@H]1CC=C2C3=C(CC[C@@]21C)[C@@]1(C)CC[C@H](O)C(C)(C)[C@@H]1CC3` )
[A] 183 to 185 °C

[Q] For the compound shown here, `C[C@H](CCCC(C(=O)O)C(=O)O)[C@H]1CC=C2C3=C(CC[C@@]21C)[C@@]1(C)CC[C@H](O)C(C)(C)[C@@H]1CC3` , give the reported melting point.
[A] 188 to 190 °C

[Q] Look up melting point: `COC(=O)CC[C@@H](C)[C@H]1CC[C@H]2C3=CC=C4C(C)(C)[C@@H](O)CC[C@]4(C)[C@H]3CC[C@]12C`
[A] 124 to 128 °C

====

Quick reference for melting point among some compounds

Recorded melting point, per entry:
# Smiles Repr, melting point
rows = [
    ("C[C@H](CCC(=O)NC(C)(C)C)[C@H]1CC=C2C3=C(CC[C@@]21C)[C@@]1(C)CC[C@H](O)C(C)(C)[C@@H]1CC3", "171 to 176 °C"),
    ("C[C@H](CCCNc1ccccc1)[C@H]1CC=C2C3=C(CC[C@@]21C)[C@@]1(C)CC[C@H](O)C(C)(C)[C@@H]1CC3", "178 to 180 °C"),
    ("C[C@H](CCC(=O)O)[C@H]1CC[C@H]2C3=CC=C4C(C)(C)[C@@H](O)CC[C@]4(C)[C@H]3CC[C@]12C", "210 to 213 °C"),
    ("C[C@H](CCC(=O)OC1CCCCC1)[C@H]1CC=C2C3=C(CC[C@@]21C)[C@@]1(C)CC[C@H](O)C(C)(C)[C@@H]1CC3", "130 to 132 °C"),
    ("C[C@H](CCCOCc1ccccc1)[C@H]1CC=C2C3=C(CC[C@@]21C)[C@@]1(C)CC[C@H](O)C(C)(C)[C@@H]1CC3", "114 to 115 °C"),
]

Next up:
[Q] What measured melting point goes with `CCOC(=O)CC[C@@H](C)[C@H]1CC=C2C3=C(CC[C@@]21C)[C@@]1(C)CC[C@H](O)C(C)(C)[C@@H]1CC3` ?
[A] 122 to 124 °C
